- test: Single rising oral dose (10-150 mg IR) safety, tolerance and pharmacokinetics in healthy male volunteers
- Format: in vivo, human
- experimentalConditions: male, human, plasma, oral, 25 mg, Median; read-out: t1/2 (converted)
reportedMetric: half-life
Hi, when you answer, please include the unit after the number. Thanks!

Problem: Any idea what its half-life is? The compound is Clc1ccc([C@]23CNC[C@H]2C3)cc1Cl [amitifadine]
Solution: 3 h

* * *

- test: 12-month dog toxicity and toxicokinetic study
- Type: in vivo
- experimentalConditions: male, beagle, dog, plasma, po, 15 mg/kg/day, males, 20 (15) mg/kg/day, Day 358
reportedMetric: Tmax (h)
Give bare numbers, in h.

Problem: Any idea what its Tmax is? The compound is Clc1ccc([C@]23CNC[C@H]2C3)cc1Cl
Solution: 1.2
